Tested on: Rodentolepis nana
Experiment: Anthelmintic activity against Hymenolepis nana infected in mouse assessed as reduction in worm burden at 100 mg/kg bid for 5 days relative to control
Assay type: functional
Parameters: scale not given: the % may be the effect or the level left
Listed compounds paired with reported Activity

Below, 3 compounds whose answers are already recorded.
Cc1cc(O)c2c(ccc3nc(-c4ccccc4)[nH]c32)n1	93%
Cc1nc2ccc3nc(-c4ccccc4)[nH]c3c2c(O)c1C	100%
Oc1c2c(nc3ccc4nc(-c5ccccc5)[nH]c4c13)CCC2	100%

Data point: `Cc1cc(O)c2c(ccc3nc(-c4ccccc4Cl)[nH]c32)n1` ; Activity = 100%

Data point: `Oc1cc(-c2ccccc2)nc2ccc3nc(-c4ccccc4)[nH]c3c12` ; Activity = 100%

Data point: `Cc1cc(O)c2c(ccc3nc(-c4ccco4)[nH]c32)n1` ; Activity = 100%

Data point: `CCCCCCOc1ccc(C(=N)N(CCCC)CCCC)c2ccccc12` ; Activity = 100%
